FYI, the data here is from patent US20240358834A1.

- TARGET_DESC: T1, human CD19 protein with a biotinylated AviTag (Acrobiosystems) (human, UniProt P15391 20-291, biotinylated AviTag)
- T1 construct: Captured on streptavidin-coated microplate wells; also called biotinylated-AviTag-CD19; hCD19; not shown: AviTag
- T1 sequence (looked up): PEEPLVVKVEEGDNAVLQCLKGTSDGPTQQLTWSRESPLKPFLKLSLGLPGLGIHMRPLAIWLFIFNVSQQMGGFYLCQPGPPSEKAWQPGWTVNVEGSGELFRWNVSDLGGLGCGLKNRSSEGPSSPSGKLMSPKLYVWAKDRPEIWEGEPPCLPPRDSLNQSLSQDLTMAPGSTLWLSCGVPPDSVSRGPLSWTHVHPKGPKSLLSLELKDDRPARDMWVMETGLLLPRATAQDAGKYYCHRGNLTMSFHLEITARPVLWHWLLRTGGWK
- RUN_DESCRIPTION: phage ELISA, biotinylated AviTag CD19 on streptavidin wells; signal ratio to FMC63 standard
Catalogue of ELISA hCD19 (ratio FMC63) values

- BINDER: "scFv 17 (scFv, Canine scFv (VL-linker-VH); also called P4-05A; P4-05B) scFv: QPVLTQPPSVSAALGQRVTISCTGSKTNIGSGYDVQWYQQLPGKSPKTIIYGNSNRPSGVPARFSGSKSGSIATLTITGIQAEDEADYYCQSFDDNVDGYVFGSGTQLTILGGGSSRSSSSGGGGSGGGGEVPLVESGGDLVKPGGSLRLSCVASGFTFSSYGMSWVRQAPGKGLQWVAYINGGGSSTSYADAVRGRFTISRDNAENTLYLQMNSLRADDTAVYYCSNYYGIYWDSDYWGQGTLVTVSSESPSPPNLTSGQAGQHHHHHHGAYPYDVPDYAS"
  ELISA hCD19 (ratio FMC63): "0.66 ratio to FMC63"

In the following, a different binder is considered.
stdin: Param item = scFv 31 (scFv, Canine scFv (VL-linker-VH); also called P4-09) scFv: QSALTQPSSVSVSLGQTATISCSGESLTKYYVQWFQQKAGQAPVLVIYRDTERPSGIPDRFSGSSSGNTHTLTISGARAEDEADYYCESMDGREAYVFGSGTQLTVLGGGSSRSSSSGGGGSGGGGEVQLVESGGDLVKPGGSLRLSCVASGFTFSSYWMSWVRQAPGKGLQWIADISDSGSSTDYADAVKGRFTISRDNAKNTLYLQMNSLRAEDTAMYYCARGLGMDYWGHGTSLFVSSASTTAPSVTSGQAGQHHHHHHGAYPYDVPDYAS ; retrieve measured ELISA hCD19 (ratio FMC63).
stdout: 0.35 ratio to FMC63
